Below: a set of entries, each annotated with reported Ratio/FWT.
Target: T1, FcRn-p3 fusion protein (human, UniProt P55899 24-297; P61769 21-119)
T1 construct: baculovirus expressed; coated on ELISA wells; not shown: amino terminal part of bacteriophage p3 protein and CVDE protein
T1 sequence (P55899 24-297, chain 1 of 2): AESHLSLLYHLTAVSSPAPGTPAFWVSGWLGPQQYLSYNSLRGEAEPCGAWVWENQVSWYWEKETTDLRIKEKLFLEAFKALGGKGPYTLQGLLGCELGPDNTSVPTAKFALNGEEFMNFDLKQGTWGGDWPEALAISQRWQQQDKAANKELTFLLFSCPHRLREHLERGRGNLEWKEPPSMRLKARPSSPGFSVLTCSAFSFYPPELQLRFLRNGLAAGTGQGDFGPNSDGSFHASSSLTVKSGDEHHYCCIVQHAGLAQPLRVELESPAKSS
T1 sequence (P61769 21-119, chain 2 of 2): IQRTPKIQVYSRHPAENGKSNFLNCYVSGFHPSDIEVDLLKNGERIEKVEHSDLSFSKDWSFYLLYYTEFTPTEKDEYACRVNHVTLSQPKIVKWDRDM
Assay: phage ELISA pH6 (est.)
The answer is to be given in fold; state only the numeric part.

Task: Give recorded Ratio/FWT. C3A_42 (other, EU numbering) CPPCPAPELLGGPSVFLFPPKPKDTLMISRTPEVTCVVVDVSHEDPEVKFNWYVDGVEVHNAKTKPREEQYNSTYRVVSVLTVLHQDWLDGKEYKCKVSNKALPVPIEKTISKAKGQPREPQVYTLPPSRDELTKNQVSLTCLVKGFYPSDIAVEWESNGQPEKNYKTTPPMLDSDGSFFLYSKLTVDKSRWQQGNVFSCSVMHEALHYHYTQKSLSLSPGK
Output: 12

Task: Give recorded Ratio/FWT. T8A_45 (other, EU numbering) CPPCPAPELLGGPSVFLFPPKPKDTLMISRTPEVTCVVVDVSHEDPEVKFNWYVDGVEVHNAKTKPREEQYNSTYRVVSVLTVLHQDWLNGKEYKCKVSNKALPAPIEKTISKAKGQPREPQVYTLPPSRDELTKNQVSLTCLVKGFYPADIVVEWESNGQPENNYKTTPPVLDSDGSFFLYSKLTVDKSRWQQGNVFSCSVMHEALHYHYTQKSLSLSPGK
Output: 5.9

Task: Give recorded Ratio/FWT. C3A_13 (other, EU numbering) GPPCPAPELLGGPSVFLFPPKPKDTLMISRTPEVTCVVVDVSHEDPEVKFNWYVDGVEVHNAKTKPREEQYNSTYRVVSVLTVLHQDWLDGKEYKCKVSNKALPVPIEKTISKAKGQPREPQVYTLPPSRDELTKNQVSLTCLVKGFYPSDIAVEWESNGQPENNYKTTPPVLDSDGSFFLYSKLTVDKSRWQQGNVFSCSVMHEALHYHYTQKSLSLSPGK
Output: 17.9

Task: Give recorded Ratio/FWT. T4A_39 (other, EU numbering) CPPCPAPELLGGPSVFLFPPKPKDTLMISRTPEVTCVVEDVSHEDPEVKFNWYVDGVEVHNAKTKPREEQYNSTYRVVSVLTVLHQDWLNGKEYKCKVSNKALPAPIEKTISKAKGQPREPQVYTLPPSRDELTKNQVSLTCLVKGFYPSDIVVEWESNGQPENNYKTTPLVLDSDGSFFLYSKLTVDKSRWQQGNVFSCSVMHEALHNHYTQKSLSLSPGK
Output: 4.4

Task: Give recorded Ratio/FWT. T4A_19 (other, EU numbering) CPPCPAPELLGGPSVFLFPPKPKDTLMISRTPEVTCVVVDVSHEDPEVKFNWYVDGVEVHNAKTKPREEQYNSTYRVVSVLPVLHQDWLNGKEYKCKVSNKALPAPIEKTISKAKGQPREPQVYTLPPSRDELTKNQVSLTCLVKGFYPSDIVVEWESNGQPENNYKTTPPVLDSDGSFFLYSKLTVDKSRWQQGNVFSCSVMHEALHSHYTQKSLSLSPGK
Output: 11.4

Task: Give recorded Ratio/FWT. T7A_46 (other, EU numbering) CPPCPAPELLGGPSVFLFPPKPKDTLMISRTPEVTCVVEDVSHEDPEVKFNWYVDGVEVHNAKTKPREEQYNSTYRVVSVLTVLHQDWLNGKEYKCKVSNKALPAPIEKTISKAKGQPREPQVYTLPPSRDELTKNQVSLTCLVKGFYPSDIVVEWESNRQPENNYKTTPPVLDSDGSFFLYSKLTVDKSRWQQGNVFSCSVMHEALHSHYTQKSLSLSPGK
Output: 8.2

Task: Give recorded Ratio/FWT. T8A_34 (other, EU numbering) CPPCPAPELLGGPSVFLFPPKPKDTLMISRTPEVTCVVVDVSHEDPEVKFNWYVDGVEVHNAKTKPREEQYNSTYRVVSVLAVLHQDWLDGKEYKCKVSNKALPAPIEKAISKAKGQPREPQVYTLPPSRDELTKNQVSLTCLVKGFYPSDIAVEWESNGQPENNYKTTPPVLDSDGSFFLYSKLTVDKSRWQQGNVFSCSVMHEALHYHYTQKSLSLSPGK
Output: 5.6

Task: Give recorded Ratio/FWT. C6A_36 (other, EU numbering) CPPCPAPELLGGPSVFLFPPKPKDTLMISRTPEVTCVVVDVSHEDPEVKFNWYVDGVEVHNAKTKPREEQYNSTYRVVSVLPVLHQDWLDGKEYKCKVSNKALPAPIEKTISKAKGQPREPQVYTLPPSRDELTKNQVSLTCLVKGFYPSDIAVEWGSNGQPENNYKTTPPVLDSDGSFFLYSKLTVDKSRWQHGNVFSCSVMHEALHYHYTQKSLSLSPGK
Output: 10.9

Continuing:
Task: Give recorded Ratio/FWT. C8A_14 (other, EU numbering) CPPCPAPELLGGPSVFLFPPKPKDTLMISRTPEVTCVVVDVSHEDPEVKFNWYVDGVEVHNAKTKPREEQYNSTYRVVSALTVLHQDWLNGKEYKCKVSNKALPAPIEKTISKAKGQPREPQVYTLPPSRDELTKNQVSLTCLVKGFYPSDIAVEWESNGRPENNYKTTPPVLDSDGSFFLYSKLTVDKSRWQQGNVFSCSVMHEALHYHYTQKSLSLSPGK
Output: 7.6

Task: Give recorded Ratio/FWT. T5A_93 (other, EU numbering) CPPCPAPELLGGPSVFLFPPKPKDTLMISRTPEVTCVVVDVSHEDPEVKFNWYVDGVEVHNAKTKPREEQYNSTYRVVSALTVLHQDWLDGKEYKCKVSNKALPVPIEKTISKAKGQPREPQVYTLPPSRDELTKNQVSLTCLVKGFYPSDIAVEWESNGQPENNYKTTAPVLDSDGSFFLYSKLTVDKSRWQQGNVFSCSVMHEALHYHYTQKSLSLSPGK
Output: 25.7
